Where these numbers come from: the supplement of paper PMC11061612

In this section, each of the compounds is paired with its reported Bliss excess.
System: NCI-H1155 (Non-Small Cell Lung Carcinoma)
Experiment: Bliss excess, mean over the matrix (fraction); higher = more synergy;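 further: after 72 h of two-drug dosing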
Respond numerically, and do not add a unit to the figure.

Recorded results for 4 compounds are shown here.
COMPOUND | ASSAYED_TARGET | Bliss excess
CN(CCO)CC[C@H](CSc1ccccc1)Nc1ccc(S(=O)(=O)NC(=O)c2ccc(N3CCC([C@@H](O)c4ccccc4-c4ccc(Cl)cc4)CC3)cc2)cc1S(=O)(=O)C(F)(F)F [AZD4320] + C1CN(CCC1(C(=O)N[C@@H](CCO)C2=CC=C(C=C2)Cl)N)C3=NC=NC4=C3C=CN4 [Capivasertib] (first compound max 1 µM, 7x7, partner max 3 µM) | NCI-H1155 (Non-Small Cell Lung Carcinoma) | 0.0147
CN(CCO)CC[C@H](CSc1ccccc1)Nc1ccc(S(=O)(=O)NC(=O)c2ccc(N3CCC([C@@H](O)c4ccccc4-c4ccc(Cl)cc4)CC3)cc2)cc1S(=O)(=O)C(F)(F)F [AZD4320] + CN(C)CCCOc1ccc(-c2ccc3ncc4c(c3c2)n(C2CCOCC2)c(=O)n4C)cn1 [AZD0156] (first compound max 1 µM, 7x7, partner max 1 µM) | NCI-H1155 (Non-Small Cell Lung Carcinoma) | -0.0105
COc1nnc2ccc(N3CCC(c4ccc(OCCN5CCN(C)C(=O)[C@H]5C)cc4)CC3)nn12 [AZD5153] + C=CCn1c(=O)c2cnc(Nc3ccc(N4CCN(C)CC4)cc3)nc2n1-c1cccc(C(C)(C)O)n1 [AZD1775] (first compound max 1 µM, partner max 1 µM) | NCI-H1155 (Non-Small Cell Lung Carcinoma) | 0.0523
Cc1c2c(nn1C)CSCc1cc(n(C)n1)CSc1cc(c3ccccc3c1)OCCCc1c(C(=O)O)n(C)c3c-2c(Cl)ccc13 [AZD5991] + C[C@@H](Nc1cc(F)cc(F)c1)c1cc(C(=O)N(C)C)cc2c(=O)cc(N3CCOCC3)oc12 [AZD8186] (first compound max 1 µM, 7x7, partner max 3 µM) | NCI-H1155 (Non-Small Cell Lung Carcinoma) | -0.0105

Task: Bliss excess for CN(CCO)CC[C@H](CSc1ccccc1)Nc1ccc(S(=O)(=O)NC(=O)c2ccc(N3CCC([C@@H](O)c4ccccc4-c4ccc(Cl)cc4)CC3)cc2)cc1S(=O)(=O)C(F)(F)F [AZD4320] + Cc1cc2ncnn2cc1Nc1ncc2c(n1)n(C1CCOCC1)c(=O)n2C [AZD7648] (first compound max 1 µM, 7x7, partner max 10 µM) ?
Result: 0.017

Task: Record: NC1(C(=O)N[C@@H](CCO)c2ccc(Cl)cc2)CCN(c2ncnc3[nH]ccc23)CC1 [Capivasertib] + C[C@@H]1COCCN1C2=NC(=NC(=C2)C3(CC3)[S@](=N)(=O)C)C4=C5C=CNC5=NC=C4 [AZD6738] (first compound max 10 µM, 7x7, partner max 10 µM)
Result: -0.0362

* * *

System: RMG-I (Ovarian Carcinoma)
Assay: Bliss excess, mean over the matrix (fraction); higher = more synergy
In this section, each of the molecules is paired with its reported Bliss excess.
Respond numerically, and do not add a unit to the figure.

Task: Bliss excess for C[C@@H](c1ccc2nccn2c1)n1nnc2ncc(-c3cnn(C)c3)nc21 [Savolitinib] + Cc1c2c(nn1C)CSCc1cc(n(C)n1)CSc1cc(c3ccccc3c1)OCCCc1c(C(=O)O)n(C)c3c-2c(Cl)ccc13 [AZD5991] (first compound max 1 µM, 7x7, partner max 1 µM) ?
Result: -0.0327

Task: Record: COc1cccc(OCCCN)c1-c1cc(Nc2cnc(C#N)cn2)n[nH]1 [Prexasertib] + CN(C)CCCOc1ccc(-c2ccc3ncc4c(c3c2)n(C2CCOCC2)c(=O)n4C)cn1 [AZD0156] (first compound max 1 µM, 7x7, partner max 1 µM)
Result: -0.04

Task: Record: C[C@@H](Nc1cc(F)cc(F)c1)c1cc(C(=O)N(C)C)cc2c(=O)cc(N3CCOCC3)oc12 [AZD8186] + C1CN(CCC1(C(=O)N[C@@H](CCO)C2=CC=C(C=C2)Cl)N)C3=NC=NC4=C3C=CN4 [AZD5363] (first compound max 10 µM, 7x7, partner max 10 µM)
Result: -0.0317

Task: Record: C[C@@H](Oc1cc(-c2cnn(C3CCNCC3)c2)cnc1N)c1c(Cl)ccc(F)c1Cl [Crizotinib] + Cn1cnc2c(F)c(Nc3ccc(Br)cc3Cl)c(C(=O)NOCCO)cc21 [Selumetinib] (first compound max 10 µM, 7x7, partner max 10 µM)
Result: 0.0091

Task: Record: CC(=O)Nc1cccc(-n2c(=O)n(C3CC3)c(=O)c3c(Nc4ccc(I)cc4F)n(C)c(=O)c(C)c32)c1 [Trametinib] + Cc1nc(-c2cn3c(n2)-c2ccc(-c4cnn(C(C)(C)C(N)=O)c4)cc2OCC3)n(C(C)C)n1 [Taselisib] (first compound max 1 µM, 7x7, partner max 10 µM)
Result: -0.0099

Task: Record: CN(C)CCCOc1ccc(-c2ccc3ncc4c(c3c2)n(C2CCOCC2)c(=O)n4C)cn1 [AZD0156] + C=CCn1c(=O)c2cnc(Nc3ccc(N4CCN(C)CC4)cc3)nc2n1-c1cccc(C(C)(C)O)n1 [AZD1775] (first compound max 1 µM, partner max 1 µM)
Result: -0.0545

Task: Record: CN(CCO)CC[C@H](CSc1ccccc1)Nc1ccc(S(=O)(=O)NC(=O)c2ccc(N3CCC([C@@H](O)c4ccccc4-c4ccc(Cl)cc4)CC3)cc2)cc1S(=O)(=O)C(F)(F)F [AZD4320] + CCN(CCO)CCCOc1ccc2c(Nc3cc(CC(=O)Nc4cccc(F)c4)[nH]n3)ncnc2c1 [AZD2811] (first compound max 1 µM, 7x7, partner max 1 µM)
Result: -0.0297

Task: Record: CN(CCO)CC[C@H](CSc1ccccc1)Nc1ccc(S(=O)(=O)NC(=O)c2ccc(N3CCC([C@@H](O)c4ccccc4-c4ccc(Cl)cc4)CC3)cc2)cc1S(=O)(=O)C(F)(F)F [AZD4320] + C=CCn1c(=O)c2cnc(Nc3ccc(N4CCN(C)CC4)cc3)nc2n1-c1cccc(C(C)(C)O)n1 [AZD1775] (first compound max 1 µM, partner max 1 µM)
Result: 0.0664

Task: Record: Cc1cc2ncnn2cc1Nc1ncc2c(n1)n(C1CCOCC1)c(=O)n2C [AZD7648] + CN(C)CCCOc1ccc(-c2ccc3ncc4c(c3c2)n(C2CCOCC2)c(=O)n4C)cn1 [AZD0156] (first compound max 10 µM, 7x7, partner max 1 µM)
Result: -0.0322

Task: Record: CN(CCO)CC[C@H](CSc1ccccc1)Nc1ccc(S(=O)(=O)NC(=O)c2ccc(N3CCC([C@@H](O)c4ccccc4-c4ccc(Cl)cc4)CC3)cc2)cc1S(=O)(=O)C(F)(F)F [AZD4320] + CN(C)CCCOc1ccc(-c2ccc3ncc4c(c3c2)n(C2CCOCC2)c(=O)n4C)cn1 [AZD0156] (first compound max 1 µM, 7x7, partner max 1 µM)
Result: -0.048

Task: Record: CCN(CCO)CCCOc1ccc2c(Nc3cc(CC(=O)Nc4cccc(F)c4)[nH]n3)ncnc2c1 [AZD2811] + C[C@@H]1COCCN1C2=NC(=NC(=C2)C3(CC3)[S@](=N)(=O)C)C4=C5C=CNC5=NC=C4 [AZD6738] (first compound max 1 µM, 7x7, partner max 10 µM)
Result: -0.0734

Task: Record: Cc1c2c(nn1C)CSCc1cc(n(C)n1)CSc1cc(c3ccccc3c1)OCCCc1c(C(=O)O)n(C)c3c-2c(Cl)ccc13 [AZD5991] + C1CN(CCC1(C(=O)N[C@@H](CCO)C2=CC=C(C=C2)Cl)N)C3=NC=NC4=C3C=CN4 [Capivasertib] (first compound max 1 µM, 7x7, partner max 3 µM)
Result: -0.0488

Task: Record: Cc1cc2ncnn2cc1Nc1ncc2c(n1)n(C1CCOCC1)c(=O)n2C [AZD7648] + C[C@@H]1COCCN1C2=NC(=NC(=C2)C3(CC3)[S@](=N)(=O)C)C4=C5C=CNC5=NC=C4 [AZD6738] (first compound max 10 µM, 7x7, partner max 10 µM)
Result: 0.0557

* * *

In this section, each of the compounds is paired with its reported Bliss excess.
Tested on: RPMI-8866 (Chronic Myelogenous Leukemia)
Assay: Bliss excess, mean over the matrix (fraction); higher = more synergy
Respond numerically, and do not add a unit to the figure.

Recorded results for 8 compounds are shown here.
COMPOUND | Bliss excess
CC1(C)CCC(CN2CCN(c3ccc(C(=O)NS(=O)(=O)c4ccc(NCC5CCOCC5)c([N+](=O)[O-])c4)c(Oc4cnc5[nH]ccc5c4)c3)CC2)=C(c2ccc(Cl)cc2)C1 [Venetoclax] + C=CCn1c(=O)c2cnc(Nc3ccc(N4CCN(C)CC4)cc3)nc2n1-c1cccc(C(C)(C)O)n1 [AZD1775] (first compound max 1 µM, partner max 1 µM) | -0.0547
CC1(C)CCC(CN2CCN(c3ccc(C(=O)NS(=O)(=O)c4ccc(NCC5CCOCC5)c([N+](=O)[O-])c4)c(Oc4cnc5[nH]ccc5c4)c3)CC2)=C(c2ccc(Cl)cc2)C1 [Venetoclax] + CN(C)CCCOc1ccc(-c2ccc3ncc4c(c3c2)n(C2CCOCC2)c(=O)n4C)cn1 [AZD0156] (first compound max 1 µM, 7x7, partner max 1 µM) | -0.0408
NC1(C(=O)N[C@@H](CCO)c2ccc(Cl)cc2)CCN(c2ncnc3[nH]ccc23)CC1 [Capivasertib] + Cn1cnc2c(F)c(Nc3ccc(Br)cc3Cl)c(C(=O)NOCCO)cc21 [Selumetinib] (first compound max 10 µM, 7x7, partner max 10 µM) | 0.0602
Cn1cnc2c(F)c(Nc3ccc(Br)cc3Cl)c(C(=O)NOCCO)cc21 [Selumetinib] + C=CCn1c(=O)c2cnc(Nc3ccc(N4CCN(C)CC4)cc3)nc2n1-c1cccc(C(C)(C)O)n1 [AZD1775] (first compound max 10 µM, partner max 1 µM) | -0.0049
CC(=O)c1c(C)c2cnc(Nc3ccc(N4CCNCC4)cn3)nc2n(C2CCCC2)c1=O [Palbociclib] + Cc1c2c(nn1C)CSCc1cc(n(C)n1)CSc1cc(c3ccccc3c1)OCCCc1c(C(=O)O)n(C)c3c-2c(Cl)ccc13 [AZD5991] (first compound max 10 µM, 7x7, partner max 1 µM) | -0.004
CN(C)CCCOc1ccc(-c2ccc3ncc4c(c3c2)n(C2CCOCC2)c(=O)n4C)cn1 [AZD0156] + CCN(CCO)CCCOc1ccc2c(Nc3cc(CC(=O)Nc4cccc(F)c4)[nH]n3)ncnc2c1 [AZD2811] (first compound max 1 µM, 7x7, partner max 1 µM) | 0.0518
CC(=O)c1c(C)c2cnc(Nc3ccc(N4CCNCC4)cn3)nc2n(C2CCCC2)c1=O [Palbociclib] + CN(CC[C@H](CSC1=CC=CC=C1)NC2=C(C=C(C=C2)S(=O)(=O)NC(=O)C3=CC=C(C=C3)N4CCC(CC4)[C@H](C5=CC=CC=C5C6=CC=C(C=C6)Cl)O)S(=O)(=O)C(F)(F)F)CCO [AZD4320] (first compound max 10 µM, 7x7, partner max 1 µM) | -0.0036
Cc1nc(Nc2ncc(C(=O)Nc3c(C)cccc3Cl)s2)cc(N2CCN(CCO)CC2)n1 [Dasatinib] + CC(=O)Nc1cccc(-n2c(=O)n(C3CC3)c(=O)c3c(Nc4ccc(I)cc4F)n(C)c(=O)c(C)c32)c1 [Trametinib] (first compound max 2 µM, 7x7, partner max 1 µM) | 0.073

Task: Bliss excess for CC1(C)CCC(CN2CCN(c3ccc(C(=O)NS(=O)(=O)c4ccc(NCC5CCOCC5)c([N+](=O)[O-])c4)c(Oc4cnc5[nH]ccc5c4)c3)CC2)=C(c2ccc(Cl)cc2)C1 [Venetoclax] + COc1cc(Nc2ncc3c(n2)-c2ccc(Cl)cc2C(c2c(F)cccc2OC)=NC3)ccc1C(=O)O [Alisertib] (first compound max 1 µM, 7x7, partner max 10 µM) ?
Result: 0.0475

Task: Record: Cc1c2c(nn1C)CSCc1cc(n(C)n1)CSc1cc(c3ccccc3c1)OCCCc1c(C(=O)O)n(C)c3c-2c(Cl)ccc13 [AZD5991] + Cc1cc2ncnn2cc1Nc1ncc2c(n1)n(C1CCOCC1)c(=O)n2C [AZD7648] (first compound max 1 µM, 7x7, partner max 10 µM)
Result: -0.0497

Task: Record: CC(=O)Nc1cccc(-n2c(=O)n(C3CC3)c(=O)c3c(Nc4ccc(I)cc4F)n(C)c(=O)c(C)c32)c1 [Trametinib] + Cc1nc(-c2cn3c(n2)-c2ccc(-c4cnn(C(C)(C)C(N)=O)c4)cc2OCC3)n(C(C)C)n1 [Taselisib] (first compound max 1 µM, 7x7, partner max 10 µM)
Result: 0.118

Task: Record: CCc1c2c(nc3ccc(O)cc13)-c1cc3c(c(=O)n1C2)COC(=O)[C@]3(O)CC [SN-38] + O=C(c1cc(Cc2n[nH]c(=O)c3ccccc23)ccc1F)N1CCN(C(=O)C2CC2)CC1 [Olaparib] (first compound max 0.3 µM, 7x7, partner max 10 µM)
Result: 0.0155

Task: Record: COc1nnc2ccc(N3CCC(c4ccc(OCCN5CCN(C)C(=O)[C@H]5C)cc4)CC3)nn12 [AZD5153] + C=CCn1c(=O)c2cnc(Nc3ccc(N4CCN(C)CC4)cc3)nc2n1-c1cccc(C(C)(C)O)n1 [AZD1775] (first compound max 1 µM, partner max 1 µM)
Result: -0.0864
